target: 5-HT2C receptor (Rattus norvegicus, UniProt P08909); assay: [3H]-5-HT binding assay (method a), affinity to the 5-HT2C receptor; design: expressed in transfected cells; settings: Ki from IC50 in nM, read-out: Pki (Pki=-log10 Ki), 5-HT2C, Method a (converted)
// values below are reported log10 Ki
All values: log10 Ki [nM].

Example results:
{"columns": ["molecule", "observed.result"],
 "data": [
  ["COc1cc(Br)cc2cc(C(=N)N)oc12 [OMe H Br H H]", 2.10],
  ["N=C(N)c1cc2cccc(OC3CCCCC3)c2o1 [O-Cyclo-hex H H H H]", 2.80],
  ["N=C(N)c1cc2ccccc2o1 [H H H H H, benzofuran-2-carboxamidine]", 1.90],
  ["COc1ccc2cc(C(=N)N)oc2c1 [H OMe H H H]", 2.80],
  ["CCCc1ccc(F)c2cc(C(=N)N)oc12 [Example 11]", 0.90],
  ["CCCOc1cccc2cc(C(=N)N)oc12 [OPr H H H H]", 2.20]
]}

Please turn your attention to the following entry.
Identify measured log10 Ki associated with CSc1cccc2cc(C(=N)N)oc12 [SMe H H H H] 1.90

====

Target: 5-HT2C receptor (Rattus norvegicus, UniProt P08909)
Sequence (P08909 33-460): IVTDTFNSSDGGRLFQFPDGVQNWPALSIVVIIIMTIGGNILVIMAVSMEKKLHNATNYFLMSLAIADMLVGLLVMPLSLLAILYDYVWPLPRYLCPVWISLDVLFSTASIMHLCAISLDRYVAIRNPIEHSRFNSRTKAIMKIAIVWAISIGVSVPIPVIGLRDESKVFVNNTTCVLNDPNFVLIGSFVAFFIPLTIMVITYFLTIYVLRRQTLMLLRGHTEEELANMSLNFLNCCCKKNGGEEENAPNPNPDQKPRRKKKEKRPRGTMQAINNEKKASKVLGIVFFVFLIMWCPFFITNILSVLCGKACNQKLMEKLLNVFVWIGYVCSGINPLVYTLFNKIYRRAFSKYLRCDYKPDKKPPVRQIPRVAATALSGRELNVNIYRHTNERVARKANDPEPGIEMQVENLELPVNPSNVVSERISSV
Assay: [3H]-5-HT binding assay (method a), affinity to the 5-HT2C receptor
Parameters: expressed in transfected cells
Conditions: Ki from IC50 in nM, read-out: Pki (Pki=-log10 Ki), 5-HT2C, Method a (converted)
endpoint.label: Ki (nM)
Write the answer as a number in nM, unit excluded.

Examples with answers:
{"columns": ["mol.smiles", "Ki, nM"],
 "data": [
  ["N=C(N)c1cc2cc(F)ccc2o1", 158],
  ["Cc1ccc2cc(C(=N)N)oc2c1", 1000],
  ["N=C(N)c1cc2cc(Br)cc(Br)c2o1", 2000],
  ["CC(C)Oc1cccc2cc(C(=N)N)oc12", 200],
  ["COCc1cccc2cc(C(=N)N)oc12", 158]
]}

// fetch Ki given entry "N=C(N)c1cc2c(F)cccc2o1" 39.8

Identify measured Ki corresponding to "CC(C)COc1cccc2cc(C(=N)N)oc12" 2000

Fill in reported Ki for this entry: "N=C(N)c1cc2cc(Cl)cc(Cl)c2o1" 2510

Give Ki for the following compound: "CCCc1cccc2cc(C(=N)N)oc12" 79.4

Give Ki for the following compound: "COc1cccc2cc(C(=N)N)oc12" 158

====

molecular target: 5-HT2C receptor (Rattus norvegicus, UniProt P08909); experiment: Penile erection (rats); assay type: in vivo; set-up: following the administration of the test substance to the animals; from tissue; host or cells: whole living rat (in vivo); details: po, 0.75 h, p.o., erections within 45 minutes following administration, read-out: ID50 (mg/kg) (p.o.), penile erection
// reported ED50 for each item listed
Answer format: value, then unit.

Here are 6 compounds together with their reported answers.
{"columns": ["mol.smiles", "observed.result"],
 "data": [
  ["N=C(N)c1cc2ccccc2o1", "5 mg/kg"],
  ["N=C(N)c1cc2c(F)cccc2o1", "2.9 mg/kg"],
  ["N=C(N)c1cc2ccc(F)cc2o1", "3 mg/kg"],
  ["CC(C)OCc1cccc2cc(C(=N)N)oc12", "5.1 mg/kg"],
  ["N=C(N)c1cc2cc(F)c(F)cc2o1", "6 mg/kg"],
  ["NC(=NO)c1cc2ccc(F)cc2o1", "1.6 mg/kg"]
]}

Look up and report measured ED50 for this entry: "NC(=NO)c1cc2ccccc2o1" 2 mg/kg

====

biological target: 5-HT2C receptor (Rattus norvegicus, UniProt P08909); test: [3H]-5-HT binding assay (method a), affinity to the 5-HT2C receptor; design: expressed in transfected cells; conditions: Ki from IC50 in nM, read-out: Pki (Pki=-log10 Ki), 5-HT2C, Method a (converted)
Param label: returns met when Ki < 200 nM, returns not met otherwise, including exact equality.

Previously resolved entries follow.
{"columns": ["mol.smiles", "study.target", "group"],
 "data": [
  ["N=C(N)c1cc2cccc(Br)c2o1", "5-HT2C receptor (Rattus norvegicus, UniProt P08909)", "met"],
  ["NC(=NO)c1cc2ccc(F)cc2o1", "5-HT2C receptor (Rattus norvegicus, UniProt P08909)", "not met"],
  ["COc1cccc2oc(C(=N)N)cc12", "5-HT2C receptor (Rattus norvegicus, UniProt P08909)", "met"],
  ["CSCc1cccc2cc(C(=N)N)oc12", "5-HT2C receptor (Rattus norvegicus, UniProt P08909)", "not met"],
  ["Cc1cccc2cc(C(=N)N)oc12", "5-HT2C receptor (Rattus norvegicus, UniProt P08909)", "not met"]
]}

Given the entry "NC(=NO)c1cc2c(F)cccc2o1" , would its reported Ki be below 200 nM? met

Please let me know if "N=C(N)c1cc2cc(F)c(F)cc2o1" shows Ki below 200 nM. met

State whether 200 nM exceeds Ki recorded for "N=C(N)c1cc2c(F)ccc(Br)c2o1" . not met

Hi there! Is Ki for "N=C(N)c1cc2ccc3c(c2o1)OCC3" below 200 nM, do you know? not met

For this compound, is Ki lower than 200 nM? "CC(C)CCOc1cccc2cc(C(=N)N)oc12" not met

====

target: 5-HT2A receptor (Homo sapiens, UniProt P28223); construct: expressed in transfected cells; assay: [3H]-DOB binding assay (method b), affinity to the 5-HT2A receptor; conditions: Ki from IC50 in nM, read-out: Pki (Pki=-log10 Ki), 5-HT2A, Method b (converted)
Sequence (P28223 whole entry): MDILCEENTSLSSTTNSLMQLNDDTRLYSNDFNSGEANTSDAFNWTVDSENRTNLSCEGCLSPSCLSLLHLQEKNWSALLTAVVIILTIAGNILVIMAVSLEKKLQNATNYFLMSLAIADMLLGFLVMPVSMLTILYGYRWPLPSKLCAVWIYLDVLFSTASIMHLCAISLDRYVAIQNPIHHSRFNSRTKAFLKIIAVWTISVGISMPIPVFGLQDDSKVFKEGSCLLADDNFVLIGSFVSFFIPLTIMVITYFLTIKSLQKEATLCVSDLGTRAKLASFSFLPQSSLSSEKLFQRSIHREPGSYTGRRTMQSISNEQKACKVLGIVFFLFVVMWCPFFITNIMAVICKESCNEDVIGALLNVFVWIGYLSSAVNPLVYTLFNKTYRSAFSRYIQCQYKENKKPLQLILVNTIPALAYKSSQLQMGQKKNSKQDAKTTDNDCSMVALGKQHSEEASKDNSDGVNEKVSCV
Ki vs 300 nM: less than gives yes (1); not less than gives no (0).

The examples below pair each entry with its known result.
{"columns": ["mol.smiles", "group"],
 "data": [
  ["N=C(N)c1cc2cccc(OC3CCCCC3)c2o1", "yes (1)"],
  ["CC(C)OCc1cccc2cc(C(=N)N)oc12", "no (0)"],
  ["N=C(N)c1cc2c(F)ccc(Br)c2o1", "no (0)"],
  ["CC(C)c1cccc2cc(C(=N)N)oc12", "no (0)"],
  ["CCCc1c(F)ccc2cc(C(=N)N)oc12", "yes (1)"]
]}

Ki under 300 nM? Item: "N=C(N)c1cc2cc(Br)cc(Br)c2o1" no (0)

Dear colleague, could you confirm whether Ki of "COc1ccc2cc(C(=N)N)oc2c1" falls below 300 nM? Thanks. no (0)

hey, is Ki for "CC(C)Oc1cccc2cc(C(=N)N)oc12" lower than 300 nM or not? no (0)

In the record for "N=C(N)c1cc2cc(Cl)cc(Br)c2o1" , is Ki less than 300 nM? no (0)

Please indicate whether the reported Ki of "NC(=NO)c1cc2ccc(F)cc2o1" is strictly below 300 nM. no (0)

Strictly below 300 nM in Ki? "CCCOc1cccc2cc(C(=N)N)oc12" no (0)

====

target: 5-HT2A receptor (Homo sapiens, UniProt P28223); construct: expressed in transfected cells; assay: [3H]-DOB binding assay (method b), affinity to the 5-HT2A receptor; details: Ki from IC50 in nM, read-out: Pki (Pki=-log10 Ki), 5-HT2A, Method b (converted)
log10 Ki values by entry
// stored as log10 of Ki expressed in nM

{"columns": ["mol.smiles", "study.target", "endpoint.label", "observed.result"],
 "data": [
  ["N=C(N)c1cc2ccc(F)cc2o1", "5-HT2A receptor (Homo sapiens, UniProt P28223)", "log10 Ki", 3.40],
  ["CCOCc1cccc2cc(C(=N)N)oc12", "5-HT2A receptor (Homo sapiens, UniProt P28223)", "log10 Ki", 3.30],
  ["CC(C)COc1cccc2cc(C(=N)N)oc12", "5-HT2A receptor (Homo sapiens, UniProt P28223)", "log10 Ki", 3.00],
  ["N=C(N)c1cc2cccc(F)c2o1", "5-HT2A receptor (Homo sapiens, UniProt P28223)", "log10 Ki", 3.70],
  ["N=C(N)c1cc2cccc(-c3ccccc3)c2o1", "5-HT2A receptor (Homo sapiens, UniProt P28223)", "log10 Ki", 2.20]
]}

Kindly indicate its recorded log10 Ki. Item: "N=C(N)c1cc2cccc(Br)c2o1" 3.20

Consider the compound "CSc1cccc2cc(C(=N)N)oc12" and give its recorded log10 Ki. 3.00

Answer with the recorded log10 Ki for the compound listed here: "CC(C)CCOc1cccc2cc(C(=N)N)oc12" 2.20

Report measured log10 Ki; entry is "COc1cc(-c2ccccc2)cc2cc(C(=N)N)oc12" 2.20

Give the value of log10 Ki reported for the following: "COc1cccc2oc(C(=N)N)cc12" 3.30

For the compound "N=C(N)c1cc2cc(F)c(F)cc2o1" , give its measured log10 Ki value. 3.30

Give the reported value of log10 Ki for this record: "N=C(N)c1cc2ccc3c(c2o1)OCC3" 3.50

Output log10 Ki of "CCCc1ccc(F)c2cc(C(=N)N)oc12" 2.70

Quick one: give measured log10 Ki for "CCCc1cccc2cc(C(=N)N)oc12" 3.00

Kindly indicate its recorded log10 Ki. Item: "N=C(N)c1cc2cc(Cl)cc(Cl)c2o1" 2.80
